Target: recombinant HGFA serine protease domain (Homo sapiens)
Construct: His6 tag (N); seven amino acid spacer plus TEV cleavage site (N); made in house; host or cells: High 5 insect cells (baculovirus; Sf9 for virus production)
Sequence (Q04756 373-655): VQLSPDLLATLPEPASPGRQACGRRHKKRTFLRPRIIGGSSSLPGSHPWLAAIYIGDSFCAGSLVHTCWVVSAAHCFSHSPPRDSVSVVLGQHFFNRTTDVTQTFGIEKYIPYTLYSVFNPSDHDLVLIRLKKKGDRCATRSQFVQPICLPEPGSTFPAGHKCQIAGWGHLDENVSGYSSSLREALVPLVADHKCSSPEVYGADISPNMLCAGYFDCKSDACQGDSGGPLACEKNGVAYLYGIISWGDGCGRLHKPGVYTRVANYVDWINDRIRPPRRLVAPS
Test: Fluorescent kinetic enzyme assay of HGFA activity (Boc-QLR-AMC)
Format: biochemical
Conditions: Table 3; average of three experiments; read-out: HGFA IC50
pIC50: −log10 of the molar value.
Overview of recorded pIC50 for various compounds

{"COMPOUND": "CC(C)C[C@H](NC(=O)OC1(Cc2ccccc2)CCNCC1)C(=O)N[C@@H](CCCNC(=N)N)C(=O)c1nc2ccccc2s1", "pIC50": 5.92}
{"COMPOUND": "CC(C)C[C@H](NC(=O)OC(Cc1ccccc1)C1CCNCC1)C(=O)N[C@@H](CCCNC(=N)N)C(=O)c1nc2ccccc2s1 (some centres unmarked) [Compound 11b]", "pIC50": 5.22}
{"COMPOUND": "CC(C)C[C@H](NC(=O)OC1(c2ccccc2)CCNCC1)C(=O)N[C@@H](CCCNC(=N)N)C(=O)c1nc2ccccc2s1", "pIC50": 6.11}
{"COMPOUND": "CC1CN(CC2CCN(Cc3ccccc3)CC2)C(=O)N(c2cccc(C(=N)N)c2)C1 (centres unmarked) [SRI 31215, reference compound]", "pIC50": 4.70}
{"COMPOUND": "CC(C)C[C@H](NC(=O)OC(c1ccccc1)C1CCNCC1)C(=O)N[C@@H](CCCNC(=N)N)C(=O)c1nc2ccccc2s1 (some centres unmarked) [Compound 11a]", "pIC50": 4.85}
